molecular target: Tyrosine-protein kinase Mer (Homo sapiens); assay: Binding affinity to wild-type partial length human MER (R557 to L884 residues) expressed in bacterial expression system assessed as fraction of unbound kinase to substrate at 10 uM after 1 hr by KinomeScan assay
valueKind: Activity (%)

{"compoundStructureString": "CC(C)c1nc2c(Oc3ccc(NC(=O)c4cccn(-c5ccc(F)cc5)c4=O)cc3F)ccnc2[nH]1", "Activity [%]": 99.1}
{"compoundStructureString": "O=C(Nc1ccc(Oc2c(Br)cnc3[nH]cnc23)c(F)c1)c1cccn(-c2ccc(F)cc2)c1=O", "Activity [%]": 98.2}
{"compoundStructureString": "Cc1cnc2[nH]cnc2c1Oc1ccc(NC(=O)c2cccn(-c3ccc(F)cc3)c2=O)cc1F", "Activity [%]": 99.1}
{"compoundStructureString": "O=C(Nc1ccc(Oc2ccnc3[nH]cnc23)c(F)c1)c1cccn(-c2ccc(F)cc2)c1=O", "Activity [%]": 99.6}

* * *

biological target: Serine/threonine-protein kinase B-raf (Homo sapiens) (UniProt P15056); assay: Binding affinity to wild-type human partial length BRAF (S429 to E741 residues) expressed in mammalian expression system assessed as fraction of unbound kinase to substrate at 10 uM after 1 hr by KinomeScan assay
Sequence (P15056 whole entry, the tested form may be a part): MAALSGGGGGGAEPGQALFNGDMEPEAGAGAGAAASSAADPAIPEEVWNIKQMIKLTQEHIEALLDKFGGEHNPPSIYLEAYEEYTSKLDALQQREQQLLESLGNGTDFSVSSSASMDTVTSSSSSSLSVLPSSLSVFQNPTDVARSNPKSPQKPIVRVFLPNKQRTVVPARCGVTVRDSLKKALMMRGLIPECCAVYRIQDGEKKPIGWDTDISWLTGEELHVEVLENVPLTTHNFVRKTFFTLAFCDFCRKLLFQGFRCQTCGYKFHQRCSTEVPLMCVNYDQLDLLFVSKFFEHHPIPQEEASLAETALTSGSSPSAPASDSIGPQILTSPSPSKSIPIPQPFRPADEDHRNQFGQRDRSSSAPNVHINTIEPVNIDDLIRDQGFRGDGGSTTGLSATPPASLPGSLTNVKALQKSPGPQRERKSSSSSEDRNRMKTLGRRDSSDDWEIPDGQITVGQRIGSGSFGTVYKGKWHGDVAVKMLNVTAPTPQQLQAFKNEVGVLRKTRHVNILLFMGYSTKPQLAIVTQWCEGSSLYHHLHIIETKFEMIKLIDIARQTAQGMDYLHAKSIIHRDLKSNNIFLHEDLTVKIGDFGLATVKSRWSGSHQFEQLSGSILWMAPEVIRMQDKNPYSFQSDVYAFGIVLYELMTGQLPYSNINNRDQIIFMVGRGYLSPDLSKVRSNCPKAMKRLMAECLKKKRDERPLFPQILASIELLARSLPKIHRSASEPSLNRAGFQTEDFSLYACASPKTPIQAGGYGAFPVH
valueKind: Activity (%)

{"compoundStructureString": "CC(C)c1nc2c(Oc3ccc(NC(=O)c4cccn(-c5ccc(F)cc5)c4=O)cc3F)ccnc2[nH]1", "observedMeasurement": 43}
{"compoundStructureString": "Cc1cnc2[nH]cnc2c1Oc1ccc(NC(=O)c2cccn(-c3ccc(F)cc3)c2=O)cc1F", "observedMeasurement": 18}

I = O=C(Nc1ccc(Oc2ccnc3[nH]cnc23)c(F)c1)c1cccn(-c2ccc(F)cc2)c1=O
II = O=C(Nc1ccc(Oc2c(Br)cnc3[nH]cnc23)c(F)c1)c1cccn(-c2ccc(F)cc2)c1=O
Form: Entry with minimum Activity (choose one): I / II Use the label to indicate which entry you chose.
II

* * *

molecular target: Fibroblast growth factor receptor 1 (Homo sapiens); assay: Binding affinity to wild-type human partial length FGFR1 (P357 to V669 residues) expressed in bacterial expression system assessed as fraction of unbound kinase to substrate at 1 uM after 1 hr by KinomeScan assay
valueKind: Activity (%)

{"compoundStructureString": "Cc1cnc2[nH]cnc2c1Oc1ccc(NC(=O)c2cccn(-c3ccc(F)cc3)c2=O)cc1F", "unitsSymbol": "%", "Activity": 2}
{"compoundStructureString": "CC(C)c1nc2c(Oc3ccc(NC(=O)c4cccn(-c5ccc(F)cc5)c4=O)cc3F)ccnc2[nH]1", "unitsSymbol": "%", "Activity": 1}

I = O=C(Nc1ccc(Oc2c(Br)cnc3[nH]cnc23)c(F)c1)c1cccn(-c2ccc(F)cc2)c1=O
II = O=C(Nc1ccc(Oc2ccnc3[nH]cnc23)c(F)c1)c1cccn(-c2ccc(F)cc2)c1=O
Recorded Activity values differ for I and II ; which one is higher? The response must carry the label of the picked entry.
II
(II: 2%, I: 1%)

* * *

target: Tyrosine-protein kinase receptor UFO (Homo sapiens); test: Binding affinity to human AXL (R497 to Y821 residues) expressed in bacterial expression system assessed as fraction of unbound kinase to substrate at 10 uM after 1 hr by KinomeScan assay
valueKind: Activity (%)

{"compoundStructureString": "Cc1cnc2[nH]cnc2c1Oc1ccc(NC(=O)c2cccn(-c3ccc(F)cc3)c2=O)cc1F", "Activity [%]": 90.1}
{"compoundStructureString": "O=C(Nc1ccc(Oc2c(Br)cnc3[nH]cnc23)c(F)c1)c1cccn(-c2ccc(F)cc2)c1=O", "Activity [%]": 90.4}
{"compoundStructureString": "O=C(Nc1ccc(Oc2ccnc3[nH]cnc23)c(F)c1)c1cccn(-c2ccc(F)cc2)c1=O", "Activity [%]": 93.3}
{"compoundStructureString": "CC(C)c1nc2c(Oc3ccc(NC(=O)c4cccn(-c5ccc(F)cc5)c4=O)cc3F)ccnc2[nH]1", "Activity [%]": 89}
